experiment: Acute oral toxicity (LD50), OECD guideline 423; assay type: in vivo; details: both sexes, Swiss albino, mouse, in vivo, po
# reported LD50 at 24 h; entries follow

Look up LD50 at 24 h: `CCCNC(=O)/C(=C/c1ccccc1)NC(=O)/C=C/c1ccccc1`
2000 to 5000 mg/kg

Further cases:
Look up LD50 at 24 h: `CCCNC(=O)/C(=C/c1c[nH]c2ccccc12)NC(=O)C=Cc1ccccc1`
2000 to 5000 mg/kg

* * *

# reported pIC50; entries follow
test system: HT-29 cells; experiment: SRB cytotoxicity assay, HT-29; format: cell-based, human; settings: monolayer, 72 h exposure, ± SEM
pIC50 field: float, defined as -log10 of concentration (mol/L).

Some molecules with known pIC50 results, for comparison:
Look up pIC50: CCCNC(=O)/C(=C/c1ccc(N(C)C)cc1)NC(=O)/C=C/c1ccc(C)cc1 [Compound 3012]
4.40

Could you do the same for CCCNC(=O)/C(=C/c1ccccc1)NC(=O)/C=C/c1cccs1 [Compound 2112] , please?
4.36

Could you do the same for CCCNC(=O)/C(=C/c1cccnc1)NC(=O)/C=C/c1cccs1 [Compound 4612] , please?
4.16

Could you do the same for CCCNC(=O)/C(=C/c1c[nH]c2ccccc12)NC(=O)/C=C/c1ccc(C)cc1 [Compound 4012] , please?
5.51

Further cases:
Look up pIC50: CCCNC(=O)/C(=C/c1ccc(F)cc1)NC(=O)/C=C/c1ccc(C)cc1 [Compound 2512]
4.93
